MEASUREMENT_PARAMETERS: in ethanol, 303.15 K
QUANTITY_KIND: solubility (mole fraction)
Lab note: jot down the number only; don't add units.

Requested field: solubility (mole fraction). Item: "C#C[C@]1(O)C=C[C@H]2[C@@H]3CCC4=CC(=O)CC[C@@H]4[C@H]3CC[C@@]21CC" 0.00701

====

MEASUREMENT_PARAMETERS: in acetonitrile, 283.15 K
QUANTITY_KIND: solubility (mole fraction)

Requested field: solubility (mole fraction). Item: "C#C[C@]1(O)C=C[C@H]2[C@@H]3CCC4=CC(=O)CC[C@@H]4[C@H]3CC[C@@]21CC" 0.00262

====

MEASUREMENT_PARAMETERS: in water, 303.15 K
QUANTITY_KIND: solubility (mole fraction)
Lab note: jot down the number only; don't add units.

Requested field: solubility (mole fraction). Item: "C#C[C@]1(O)C=C[C@H]2[C@@H]3CCC4=CC(=O)CC[C@@H]4[C@H]3CC[C@@]21CC" 1.23e-05

====

MEASUREMENT_PARAMETERS: in n-butanol, 283.15 K
QUANTITY_KIND: solubility (mole fraction)
Lab note: jot down the number only; don't add units.

Requested field: solubility (mole fraction). Item: "C#C[C@]1(O)C=C[C@H]2[C@@H]3CCC4=CC(=O)CC[C@@H]4[C@H]3CC[C@@]21CC" 0.00395

====

MEASUREMENT_PARAMETERS: in 2-butanone, 288.15 K
QUANTITY_KIND: solubility (mole fraction)
Lab note: jot down the number only; don't add units.

Requested field: solubility (mole fraction). Item: "C#C[C@]1(O)C=C[C@H]2[C@@H]3CCC4=CC(=O)CC[C@@H]4[C@H]3CC[C@@]21CC" 0.0114

====

MEASUREMENT_PARAMETERS: in isopropyl acetate, 313.15 K
QUANTITY_KIND: solubility (mole fraction)
Lab note: jot down the number only; don't add units.

Requested field: solubility (mole fraction). Item: "C#C[C@]1(O)C=C[C@H]2[C@@H]3CCC4=CC(=O)CC[C@@H]4[C@H]3CC[C@@]21CC" 0.052

====

MEASUREMENT_PARAMETERS: in isopropanol, 323.15 K
QUANTITY_KIND: solubility (mole fraction)
Lab note: jot down the number only; don't add units.

Requested field: solubility (mole fraction). Item: "C#C[C@]1(O)C=C[C@H]2[C@@H]3CCC4=CC(=O)CC[C@@H]4[C@H]3CC[C@@]21CC" 0.0101

====

MEASUREMENT_PARAMETERS: in 2-butanone, 303.15 K
QUANTITY_KIND: solubility (mole fraction)
Lab note: jot down the number only; don't add units.

Requested field: solubility (mole fraction). Item: "C#C[C@]1(O)C=C[C@H]2[C@@H]3CCC4=CC(=O)CC[C@@H]4[C@H]3CC[C@@]21CC" 0.0188

====

MEASUREMENT_PARAMETERS: in 2-butanone, 313.15 K
QUANTITY_KIND: solubility (mole fraction)
Lab note: jot down the number only; don't add units.

Requested field: solubility (mole fraction). Item: "C#C[C@]1(O)C=C[C@H]2[C@@H]3CCC4=CC(=O)CC[C@@H]4[C@H]3CC[C@@]21CC" 0.0258

====

MEASUREMENT_PARAMETERS: in methanol, 293.15 K
QUANTITY_KIND: solubility (mole fraction)
Lab note: jot down the number only; don't add units.

Requested field: solubility (mole fraction). Item: "C#C[C@]1(O)C=C[C@H]2[C@@H]3CCC4=CC(=O)CC[C@@H]4[C@H]3CC[C@@]21CC" 0.00655

The origin of these recorded values is BigSolDB 2.1.
